The entries below are paired with their reported TGI.
- Test system: K562
- Method: Growth inhibition of human K562 cells after 48 hrs
- Format: functional
- Condition Details: K562, 48 h, read-out: pTGI (converted)
Give just the number in µM; leave the unit off.

* COc1ccc(N(CC(=O)NCCC[Te]c2ccccc2)C(=O)CCSC2=C(C)C(=O)c3ccccc3C2=O)cc1 | 5.13

In: Item CC1=C(SCCC(=O)OCC(=O)NCCC[Te]c2ccccc2)C(=O)c2ccccc2C1=O with K562 - TGI?
Out: 34.7

* * *

- Tested on: SK-MEL-2
- Method: Growth inhibition of human SK-MEL-2 cells after 48 hrs
- Type: functional
- Condition Details: SK-MEL-2, 48 h
Assay Metric: GI50

Some solved entries appear below for comparison.
• COc1ccc(N(CC(=O)NCCC[Te]c2ccccc2)C(=O)c2ccccc2)cc1 = 4170 nM
• COc1ccc(N(CC(=O)NCCC[Te]c2ccccc2)C(=O)CCSC2=C(C)C(=O)c3ccccc3C2=O)cc1 = 2290 nM
• COc1ccc(N(CC(=O)NCCC[Te]c2ccccc2)C(=O)CNC(=O)OC(C)(C)C)cc1 = 3020 nM

Moving on to the next compound.
In: Report GI50 for CC1=C(SCCC(=O)OCC(=O)NCCC[Te]c2ccccc2)C(=O)c2ccccc2C1=O please.
Out: 2090 nM
